Data credit: ChEMBL document CHEMBL1147182

SYSTEM_UNDER_TEST: Cyclin-dependent kinase 5/CDK5 activator 1 (Homo sapiens)
Sequence (Q00535 whole entry): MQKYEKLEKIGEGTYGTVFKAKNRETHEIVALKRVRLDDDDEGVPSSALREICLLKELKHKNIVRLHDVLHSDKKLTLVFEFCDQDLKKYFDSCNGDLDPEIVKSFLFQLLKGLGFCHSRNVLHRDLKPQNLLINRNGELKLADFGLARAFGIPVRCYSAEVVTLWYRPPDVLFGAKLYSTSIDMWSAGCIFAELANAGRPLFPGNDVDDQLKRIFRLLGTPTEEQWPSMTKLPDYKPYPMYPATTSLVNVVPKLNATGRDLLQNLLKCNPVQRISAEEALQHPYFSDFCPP
Sequence (Q15078 whole entry, further chain): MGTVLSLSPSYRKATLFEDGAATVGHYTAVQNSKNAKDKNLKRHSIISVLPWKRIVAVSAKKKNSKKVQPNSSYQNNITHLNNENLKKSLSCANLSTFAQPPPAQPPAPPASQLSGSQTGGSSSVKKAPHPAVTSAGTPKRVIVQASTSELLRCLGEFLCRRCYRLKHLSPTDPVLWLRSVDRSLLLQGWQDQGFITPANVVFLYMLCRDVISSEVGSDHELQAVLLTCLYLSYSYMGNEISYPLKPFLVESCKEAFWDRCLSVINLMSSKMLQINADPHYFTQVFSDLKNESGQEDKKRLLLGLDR
RUN_DESCRIPTION: Inhibition of human cdk5/p25 by SPA
ASSAY_READOUT: IC50 (µM)

// worked examples, IC50 included
>  <INPUT_SMILES>
COC(=O)CSc1nnc(Cc2csc(NC(=O)c3ccccc3)n2)n1NC(=O)c1ccccc1

>  <UNIT_OF_MEASURE>
µM

>  <IC50>
0.364

$$$$
>  <INPUT_SMILES>
O=C(CSc1nnc(Cc2csc(NC(=O)CCl)n2)n1NC(=O)c1ccccc1)N/N=C/c1ccccc1

>  <UNIT_OF_MEASURE>
µM

>  <IC50>
0.467

$$$$
>  <INPUT_SMILES>
O=C(CSc1nnc(Cc2csc(NC(=O)c3ccccc3)n2)n1NC(=O)c1ccccc1)N/N=C/c1ccccc1

>  <UNIT_OF_MEASURE>
µM

>  <IC50>
0.496

$$$$
>  <INPUT_SMILES>
CC(=O)NNC(=O)CSc1nnc(Cc2csc(NCCC(=O)O)n2)n1NC(C)=O

>  <UNIT_OF_MEASURE>
µM

>  <IC50>
0.463

$$$$
>  <INPUT_SMILES>
CC(=O)Nc1nc(Cc2nnc(SCc3n[nH]c(=S)n3N)n2NC(=O)c2ccccc2)cs1

>  <UNIT_OF_MEASURE>
µM

>  <IC50>
6.54

$$$$
>  <INPUT_SMILES>
CC(=O)Nc1nc(Cc2nnc(SCC(=O)NN)n2NC(C)=O)cs1

>  <UNIT_OF_MEASURE>
µM

>  <IC50>
0.241

$$$$

I: COC(=O)CSc1nnc(Cc2csc(NC(C)=O)n2)n1NC(C)=O
II: NNC(=O)CSc1nnc(Cc2csc(NC(=O)c3ccccc3)n2)n1NC(=O)c1ccccc1
III: CC(=O)Nn1c(Cc2csc(NC(=O)CCl)n2)nnc1SCc1nnc(S)n1N
IV: CC(=O)Nc1nc(Cc2nnc(SCC#N)n2NC(=O)c2ccc(Cl)cc2)cs1
# rank_down: sort by IC50, max first Answer by listing the labels in the order asked for.
III, I, II, IV

====

SYSTEM_UNDER_TEST: Cyclin-dependent kinase 5/CDK5 activator 1 (Homo sapiens)
RUN_DESCRIPTION: Inhibition of human cdk5/p25 by SPA
ASSAY_READOUT: IC50 (µM)

// worked examples, IC50 included
>  <INPUT_SMILES>
Nn1c(CSc2nnc(Cc3csc(NCCC(=O)O)n3)n2NC(=O)c2ccccc2)n[nH]c1=S

>  <UNIT_OF_MEASURE>
µM

>  <IC50>
4.79

$$$$
>  <INPUT_SMILES>
CC(=O)Nn1c(Cc2csc(NC(=O)CCl)n2)nnc1SCC(=O)N/N=C/c1ccccc1

>  <UNIT_OF_MEASURE>
µM

>  <IC50>
0.536

$$$$
>  <INPUT_SMILES>
CC(=O)Nn1c(Cc2csc(NC(=O)c3ccccc3)n2)nnc1SCC(=O)NNC(=O)CCl

>  <UNIT_OF_MEASURE>
µM

>  <IC50>
0.356

$$$$
>  <INPUT_SMILES>
CC(=O)NNC(=O)CSc1nnc(Cc2csc(NC(C)=O)n2)n1NC(C)=O

>  <UNIT_OF_MEASURE>
µM

>  <IC50>
0.384

$$$$
>  <INPUT_SMILES>
NNC(=O)CSc1nnc(Cc2csc(NCCC(=O)O)n2)n1NC(=O)c1ccc(Cl)cc1

>  <UNIT_OF_MEASURE>
µM

>  <IC50>
0.064

$$$$
>  <INPUT_SMILES>
COC(=O)CSc1nnc(Cc2csc(NC(C)=O)n2)n1NC(=O)c1ccccc1

>  <UNIT_OF_MEASURE>
µM

>  <IC50>
0.587

$$$$
>  <INPUT_SMILES>
CC(=O)Nc1nc(Cc2nnc(SCC(=O)NNC(=O)CCl)n2NC(=O)c2ccc(Cl)cc2)cs1

>  <UNIT_OF_MEASURE>
µM

>  <IC50>
0.26

$$$$

1: CC(=O)Nc1nc(Cc2nnc(SCc3nnc(S)n3N)n2NC(C)=O)cs1
2: O=C(O)CCNc1nc(Cc2nnc(SCC(=O)N/N=C/c3ccccc3)n2NC(=O)c2ccccc2)cs1
// pick larger IC50 from pair: 1 vs 2 Indicate your choice by writing its label.
1
